From: PubChem BioAssay AID2060885

Catalogue of compounds with associated viability, T/C
- Test system: NCI-H23 complex spheroids with HUVEC/MSC, viability
- Experiment description: Anticancer human tumor NCI-H23 cell line growth inhibition [RAS];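 further: spheroids exposed to compound for 7 days; 100% = DMSO vehicle control viability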
- Condition context: second compound 1 µM; first compound 1 µM; active compounds read low

| Compound | Quantity name | Measured |
| --- | --- | --- |
| Nc1ccn(C2OC(CO)C(O)C2(F)F)c(=O)n1 (stereo not given) + C=CC(=O)N1CCN(c2nc(OCC3CCCN3C)nc3c(F)c(-c4nc(N)cc(C)c4C(F)(F)F)c(Cl)cc23)C(C)C1 | viability, T/C | 2.67% |
| NC1c2ccccc2OC12CCN(c1cnc3c(N4CCCc5ncccc54)n[nH]c3n1)CC2 (stereo not given) + C=CC(=O)N1CCN(c2nc(OCC3CCCN3C)nc3c(F)c(-c4nc(N)cc(C)c4C(F)(F)F)c(Cl)cc23)C(C)C1 | viability, T/C | 13.1% |
| C=CC(=O)Nc1cc(Nc2nccc(-c3cn(C)c4ccccc34)n2)c(OC)cc1N(C)CCN(C)C + C#Cc1c(F)ccc2cc(O)cc(-c3ncc4c(N5CC6CCC(C5)N6)nc(OCC56CCCN5CC(F)C6)nc4c3F)c12 | viability, T/C | 85.3% |
| CCC(CC)c1cc(NC2CCC(N)C2)n2nccc2n1 (stereo not given) + C=CC(=O)N1CCN(c2nc(OCC3CCCN3C)nc3c(F)c(-c4nc(N)cc(C)c4C(F)(F)F)c(Cl)cc23)C(C)C1 | viability, T/C | 38.5% |

Summary for this compound, C=CC(=O)Nc1cc(Nc2nccc(-c3cn(C)c4ccccc34)n2)c(OC)cc1N(C)CCN(C)C + C=CC(=O)N1CCN(c2nc(OCC3CCCN3C)nc3c(F)c(-c4nc(N)cc(C)c4C(F)(F)F)c(Cl)cc23)C(C)C1 : viability, T/C is 28.3%
